The values you see were collected from PubChem BioAssay AID2060617.

- Test system: 485368-065-R4-J2-PDC spheroids with HUVEC/MSC, viability;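 also: spheroids exposed to compounds for seven days; 100% = DMSO vehicle control wells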
- measurement_protocol: Anticancer human tumor 485368-065-R4-J2-PDC patient-derived pancreatic carcinoma cell line growth inhibition [CLK]
- test_conditions: second compound 0.0316 µM; first compound 1 µM; stronger effect = lower value
- Text: A high-throughput screen of multi-cell type tumor spheroids was designed to identify active combinations of […] and targeted small molecules. Complex spheroids include a stromal component modeled by human endothelial cells (HUVEC) and fibroblasts modeled by human mesenchymal stem cells (MSCs). […] Compounds. […] If the clinical Cmax for an agent had not been determined, the highest concentration tested was 10 microM. […]
Reported viability, T/C values follow for various molecules
Numeric answer only, unit % assumed.

>  <molecule>
Nc1ccn(C2OC(CO)C(O)C2(F)F)c(=O)n1 (stereo not given) + CN1CCN(c2cc(C(=O)Nc3cc4cc(-c5cnn(C)c5)ccc4cn3)ccn2)CC1

>  <value_units>
%

>  <viability, T/C>
24.2

$$$$
>  <molecule>
C=C(F)C(=O)N1CCN(c2nc(OCC3CCCN3C)nc3c2CCN(c2cccc4cccc(Cl)c24)C3)CC1CC#N (stereo not given) + CN1CCN(c2cc(C(=O)Nc3cc4cc(-c5cnn(C)c5)ccc4cn3)ccn2)CC1

>  <value_units>
%

>  <viability, T/C>
114

$$$$
>  <molecule>
O=C(c1cc(Cc2n[nH]c(=O)c3ccccc23)ccc1F)N1CCN(C(=O)C2CC2)CC1 + CN1CCN(c2cc(C(=O)Nc3cc4cc(-c5cnn(C)c5)ccc4cn3)ccn2)CC1

>  <value_units>
%

>  <viability, T/C>
110

$$$$
>  <molecule>
CC1(C)CCC(CN2CCN(c3ccc(C(=O)NS(=O)(=O)c4ccc(NCC5CCOCC5)c([N+](=O)[O-])c4)c(Oc4cnc5[nH]ccc5c4)c3)CC2)=C(c2ccc(Cl)cc2)C1 + CN1CCN(c2cc(C(=O)Nc3cc4cc(-c5cnn(C)c5)ccc4cn3)ccn2)CC1

>  <value_units>
%

>  <viability, T/C>
111

$$$$

Could you now consider this next molecule?
-- ask Need viability, T/C of C=CC(=O)N1CCN(c2nc(=O)n(-c3c(C)ccnc3C(C)C)c3nc(-c4c(O)cccc4F)c(F)cc23)C(C)C1 (stereo not given) + CN1CCN(c2cc(C(=O)Nc3cc4cc(-c5cnn(C)c5)ccc4cn3)ccn2)CC1 , thanks.
-- reply 104
